# credit: the supplement of paper PMC10567573

The variants listed here are annotated with their protein stability index.
B1: KLHL14 (parent)
chain: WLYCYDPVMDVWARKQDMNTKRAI

variants of: B1; experiment: protein stability index of a GFP-peptide fusion (GPS, HEK-293T) (PSI 1-6); higher = more stable; conditions: c terminus: a fixed tail appended;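 further: lentivirally expressed fusions sorted by FACS into six bins by GFP to DsRed ratio, PSI derived from sequencing read proportions per bin multiplied by bin number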
Please reply with the value in numeric form only.

mutationlabel=N19Y numericreadout=1.72

Could you share which protein stability index value was measured for `A23I` ?
1.57

Could you share which protein stability index value was measured for `K15Y` ?
2.08

Could you share which protein stability index value was measured for `A13R` ?
1.8
